Would you mind telling me the reported AUC of each entry?
- test_protocol: AUC in rat p.o. at 20 mg/kg concentration
- Type: ADME, organism-based
- Parameters: dose 20 mg/kg, route oral
- experimental_parameters: plasma, po
A complete answer gives the number followed by the unit.

Value of measured AUC for the entry "COc1cc2c(Nc3c(Cl)ccc4c3OCO4)ncnc2cc1OCCCN1CCCCC1" : 7900 ng·h/mL

Value of measured AUC for the entry "COc1cc2c(Nc3c(Cl)ccc4c3OCO4)ncnc2cc1OCC1CCN(C)CC1" : 2500 ng·h/mL

---

Would you mind telling me the reported half-life of each entry?
- test_protocol: Half life in rat i.v. at 2 mg/kg concentration
- Format: ADME, organism-based
- Set-up: dose 2 mg/kg, route intravenous
- experimental_parameters: in vivo, iv
State the answer as a number, implicitly in h.

Value of measured half-life for the entry "COc1cc2c(Nc3c(Cl)ccc4c3OCO4)ncnc2cc1OCC1CCN(C)CC1" : 5.7

Value of measured half-life for the entry "COc1cc2c(Nc3c(Cl)ccc4c3OCO4)ncnc2cc1OCCCN1CCCCC1" : 5.8

---

Would you mind telling me the reported Cmax of each entry?
- test_protocol: Cmax in rat p.o. at 20 mg/kg concentration
- Assay type: ADME, organism-based
- Design: dose 20 mg/kg, route oral
- experimental_parameters: in vivo, po
State the answer as a number, implicitly in nM.

Value of measured Cmax for the entry "COc1cc2c(Nc3c(Cl)ccc4c3OCO4)ncnc2cc1OCCCN1CCCCC1" : 2960

Value of measured Cmax for the entry "COc1cc2c(Nc3c(Cl)ccc4c3OCO4)ncnc2cc1OCC1CCN(C)CC1" : 910

---

- test_protocol: Solubility was determined
- Assay type: physicochemical
- experimental_parameters: read-out: S
endpoint: solubility

Value of measured solubility for the entry "COc1cc2c(Nc3c(Cl)ccc4c3OCO4)ncnc2cc1OCC1CCN(C)CC1" : > 3300 µM

Value of measured solubility for the entry "COc1cc2c(Nc3c(Cl)ccc4c3OCO4)ncnc2cc1OCCCN1CCCCC1" : > 2000 µM

Value of measured solubility for the entry "COc1cc2c(Nc3c(Cl)ccc4c3OCO4)ncnc2cc1OCCCN1CCOCC1" : 71 µM

---

Would you mind telling me the reported Vd of each entry?
- test_protocol: Vdss in rat i.v. at 2 mg/kg concentration
- Format: ADME, organism-based
- Design: dose 2 mg/kg, route intravenous
- experimental_parameters: in vivo, iv, read-out: Vdss
State the answer as a number, implicitly in L/kg.

Value of measured Vd for the entry "COc1cc2c(Nc3c(Cl)ccc4c3OCO4)ncnc2cc1OCC1CCN(C)CC1" : 17

Value of measured Vd for the entry "COc1cc2c(Nc3c(Cl)ccc4c3OCO4)ncnc2cc1OCCCN1CCCCC1" : 14.4

---

Would you mind telling me the reported Activity of each entry?
- Species on record: Rattus norvegicus
- test_protocol: Percentage in free rat serum was determined
- Type: ADME, organism-based
State the answer as a number, implicitly in %.

Value of measured Activity for the entry "COc1cc2c(Nc3c(Cl)ccc4c3OCO4)ncnc2cc1OCC1CCN(C)CC1" : 9.8

Value of measured Activity for the entry "COc1cc2c(Nc3c(Cl)ccc4c3OCO4)ncnc2cc1OCCCN1CCOCC1" : 10.5

Value of measured Activity for the entry "COc1cc2c(Nc3c(Cl)ccc4c3OCO4)ncnc2cc1OCCCN1CCCCC1" : 13.7

Value of measured Activity for the entry "COc1cc2c(Nc3c(Cl)ccc4c3OCO4)ncnc2cc1OCc1ccnc(C#N)c1" : 1.6

---

- test_protocol: Solubility was determined
- Format: physicochemical
endpoint: solubility (µM)
State the answer as a number, implicitly in µM.

Value of measured solubility for the entry "COc1cc2c(Nc3c(Cl)ccc4c3OCO4)ncnc2cc1OCc1ccnc(C#N)c1" : 10

---

- assayed_target: Vascular endothelial growth factor receptor 2 (Homo sapiens)
- Sequence (P35968 whole entry): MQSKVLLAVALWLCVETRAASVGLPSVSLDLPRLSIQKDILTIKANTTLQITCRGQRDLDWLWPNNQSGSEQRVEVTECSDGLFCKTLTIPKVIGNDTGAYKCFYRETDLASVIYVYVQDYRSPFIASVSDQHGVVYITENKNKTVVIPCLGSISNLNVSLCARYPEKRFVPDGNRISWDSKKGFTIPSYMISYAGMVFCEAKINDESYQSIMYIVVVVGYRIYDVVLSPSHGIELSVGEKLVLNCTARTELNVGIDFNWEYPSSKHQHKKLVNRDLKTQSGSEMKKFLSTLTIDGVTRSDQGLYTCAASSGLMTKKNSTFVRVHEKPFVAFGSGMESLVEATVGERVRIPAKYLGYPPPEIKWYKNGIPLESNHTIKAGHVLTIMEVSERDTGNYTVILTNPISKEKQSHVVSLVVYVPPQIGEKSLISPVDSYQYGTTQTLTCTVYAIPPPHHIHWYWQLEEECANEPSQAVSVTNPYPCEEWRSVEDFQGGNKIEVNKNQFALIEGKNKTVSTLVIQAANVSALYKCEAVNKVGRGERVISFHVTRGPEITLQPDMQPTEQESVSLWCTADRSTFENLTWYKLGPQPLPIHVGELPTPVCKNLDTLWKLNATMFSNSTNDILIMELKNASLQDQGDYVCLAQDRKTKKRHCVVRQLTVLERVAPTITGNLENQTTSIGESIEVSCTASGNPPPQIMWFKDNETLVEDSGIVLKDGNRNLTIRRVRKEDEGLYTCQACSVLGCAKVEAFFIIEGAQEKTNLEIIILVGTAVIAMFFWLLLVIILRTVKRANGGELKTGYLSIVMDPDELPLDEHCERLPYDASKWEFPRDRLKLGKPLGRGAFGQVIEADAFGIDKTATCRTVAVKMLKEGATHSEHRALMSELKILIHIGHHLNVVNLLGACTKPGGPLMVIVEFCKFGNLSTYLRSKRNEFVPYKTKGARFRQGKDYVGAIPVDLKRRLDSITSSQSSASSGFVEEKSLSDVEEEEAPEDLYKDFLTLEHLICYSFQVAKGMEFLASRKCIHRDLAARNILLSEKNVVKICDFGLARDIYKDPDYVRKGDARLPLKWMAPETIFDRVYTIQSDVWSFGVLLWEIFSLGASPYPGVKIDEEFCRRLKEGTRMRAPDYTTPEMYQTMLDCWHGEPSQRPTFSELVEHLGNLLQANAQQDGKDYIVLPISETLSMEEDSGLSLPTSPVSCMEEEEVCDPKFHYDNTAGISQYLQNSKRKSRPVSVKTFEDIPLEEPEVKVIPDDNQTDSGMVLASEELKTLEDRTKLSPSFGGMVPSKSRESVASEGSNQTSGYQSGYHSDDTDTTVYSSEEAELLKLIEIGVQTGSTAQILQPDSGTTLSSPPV
Records here are stratified by IC50; strata: c1: < 1000 nM; c2: ≥ 1000 nM and < 20000 nM; c3: ≥ 20000 nM

Problem: Sort into band: "COc1cc2c(Nc3cccc4ccoc34)ncnc2cc1OCCCN1CCOCC1"
Solution: c1

Problem: Sort into band: "COc1cc2c(Nc3c(Cl)ccc4ccoc34)ncnc2cc1OCCCN1CCOCC1"
Solution: c2

Problem: Sort into band: "COc1ccc(Cl)c(Nc2ncnc3cc(OCCCN4CCOCC4)c(OC)cc23)c1"
Solution: c2

Problem: Sort into band: "COc1cc2c(Nc3c(Br)ccc4c3OCO4)ncnc2cc1OCCCN1CCOCC1"
Solution: c3

Problem: Sort into band: "COc1cc2c(Nc3c(F)ccc4c3OCO4)ncnc2cc1OCCCN1CCOCC1"
Solution: c2

Problem: Sort into band: "COc1cc2c(Nc3cccc4c(Cl)coc34)ncnc2cc1OCCCN1CCOCC1"
Solution: c1

Problem: Sort into band: "COc1cc2c(Nc3c(Cl)ccc4c3OCO4)ncnc2cc1OCCCN1CCOCC1"
Solution: c2

Problem: Sort into band: "COc1cc2c(Nc3c(Cl)ccc4c3OCO4)ncnc2cc1OCCCN1CCCCC1"
Solution: c2

Problem: Sort into band: "COc1cc2c(Nc3c(Cl)ccc4c3OCO4)ncnc2cc1OCc1ccnc(C#N)c1"
Solution: c3

---

- test_protocol: Cl in rat i.v. at 2 mg/kg concentration
- Assay type: ADME, organism-based
- Design: dose 2 mg/kg, route intravenous
- experimental_parameters: in vivo, iv
endpoint: clearance
A complete answer gives the number followed by the unit.

Value of measured clearance for the entry "COc1cc2c(Nc3c(Cl)ccc4c3OCO4)ncnc2cc1OCCCN1CCCCC1" : 36 mL/min/kg

---

- test_protocol: Total body clearance in rat i.v. at 2 mg/kg concentration
- Type: ADME, organism-based
- Set-up: dose 2 mg/kg, route intravenous
- experimental_parameters: in vivo, iv
endpoint: clearance (mL/min/kg)
State the answer as a number, implicitly in mL/min/kg.

Value of measured clearance for the entry "COc1cc2c(Nc3c(Cl)ccc4c3OCO4)ncnc2cc1OCC1CCN(C)CC1" : 49

---

Would you mind telling me the reported pKa of each entry?
- test_protocol: pKa was determined
- Format: physicochemical
Just the number.

Value of measured pKa for the entry "COc1cc2c(Nc3c(Cl)ccc4c3OCO4)ncnc2cc1OCCCN1CCOCC1" : 7.2

Value of measured pKa for the entry "COc1cc2c(Nc3c(Cl)ccc4c3OCO4)ncnc2cc1OCc1ccnc(C#N)c1" : 4.9

Value of measured pKa for the entry "COc1cc2c(Nc3c(Cl)ccc4c3OCO4)ncnc2cc1OCCCN1CCCCC1" : 9.7

Value of measured pKa for the entry "COc1cc2c(Nc3c(Cl)ccc4c3OCO4)ncnc2cc1OCC1CCN(C)CC1" : 9.4

---

- assayed_target: Vascular endothelial growth factor receptor 1 (Homo sapiens, UniProt P17948)
- Sequence (P17948 whole entry): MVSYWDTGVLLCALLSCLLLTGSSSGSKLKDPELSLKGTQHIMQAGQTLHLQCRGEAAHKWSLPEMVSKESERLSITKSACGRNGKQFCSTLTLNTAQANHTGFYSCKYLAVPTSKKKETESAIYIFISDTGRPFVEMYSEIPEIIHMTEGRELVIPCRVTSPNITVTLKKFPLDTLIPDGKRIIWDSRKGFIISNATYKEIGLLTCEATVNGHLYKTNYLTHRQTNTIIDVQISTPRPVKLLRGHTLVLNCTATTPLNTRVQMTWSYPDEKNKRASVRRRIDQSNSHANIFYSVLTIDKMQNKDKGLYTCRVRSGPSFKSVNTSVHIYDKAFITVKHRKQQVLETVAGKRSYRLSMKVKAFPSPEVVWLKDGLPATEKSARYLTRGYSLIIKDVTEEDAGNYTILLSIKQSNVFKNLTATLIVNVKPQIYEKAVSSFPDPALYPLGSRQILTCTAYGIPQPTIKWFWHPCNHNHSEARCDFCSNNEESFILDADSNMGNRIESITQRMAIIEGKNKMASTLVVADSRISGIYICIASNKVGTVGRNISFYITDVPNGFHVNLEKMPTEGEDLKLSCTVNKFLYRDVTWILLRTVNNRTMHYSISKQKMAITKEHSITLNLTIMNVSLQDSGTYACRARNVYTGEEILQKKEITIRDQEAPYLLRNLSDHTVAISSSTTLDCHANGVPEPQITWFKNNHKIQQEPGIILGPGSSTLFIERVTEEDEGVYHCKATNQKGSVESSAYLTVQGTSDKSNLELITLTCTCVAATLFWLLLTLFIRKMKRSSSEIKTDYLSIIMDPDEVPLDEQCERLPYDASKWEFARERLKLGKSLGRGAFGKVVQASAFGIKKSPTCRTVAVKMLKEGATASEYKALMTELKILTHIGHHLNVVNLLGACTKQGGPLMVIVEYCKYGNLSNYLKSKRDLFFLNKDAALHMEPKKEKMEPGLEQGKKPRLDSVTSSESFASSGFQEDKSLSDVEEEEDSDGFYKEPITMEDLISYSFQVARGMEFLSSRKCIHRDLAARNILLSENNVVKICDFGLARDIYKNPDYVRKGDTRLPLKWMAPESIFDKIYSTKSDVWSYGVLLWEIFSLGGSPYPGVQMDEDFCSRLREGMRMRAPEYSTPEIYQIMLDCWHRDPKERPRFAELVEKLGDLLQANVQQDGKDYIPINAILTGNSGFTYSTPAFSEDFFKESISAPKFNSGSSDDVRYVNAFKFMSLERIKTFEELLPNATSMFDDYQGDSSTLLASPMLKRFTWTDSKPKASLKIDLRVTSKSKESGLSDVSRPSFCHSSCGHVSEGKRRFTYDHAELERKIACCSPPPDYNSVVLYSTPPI
pIC50: −log10 of the molar value.
endpoint: pIC50

Value of measured pIC50 for the entry "COc1cc2c(Nc3c(Cl)ccc4c3OCO4)ncnc2cc1OCCCN1CCOCC1" : < 4.00

---

Proto-oncogene tyrosine-protein kinase Src (Homo sapiens) pIC50 data
Sequence (P12931 2-536 limits assumed): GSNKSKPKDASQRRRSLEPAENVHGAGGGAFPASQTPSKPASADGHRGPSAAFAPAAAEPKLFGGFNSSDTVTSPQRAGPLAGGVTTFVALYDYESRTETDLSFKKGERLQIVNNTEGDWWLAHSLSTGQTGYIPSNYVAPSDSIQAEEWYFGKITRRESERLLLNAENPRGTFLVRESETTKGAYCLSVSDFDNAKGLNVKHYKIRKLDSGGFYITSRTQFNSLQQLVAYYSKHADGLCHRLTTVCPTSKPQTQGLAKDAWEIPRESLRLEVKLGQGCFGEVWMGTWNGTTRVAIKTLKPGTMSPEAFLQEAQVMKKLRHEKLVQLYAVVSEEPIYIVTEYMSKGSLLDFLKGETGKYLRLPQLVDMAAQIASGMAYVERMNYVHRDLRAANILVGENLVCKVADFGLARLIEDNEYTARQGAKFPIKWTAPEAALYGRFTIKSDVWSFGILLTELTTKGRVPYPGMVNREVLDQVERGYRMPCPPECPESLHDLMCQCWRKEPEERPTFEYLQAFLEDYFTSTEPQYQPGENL
Interpret pIC50 as the negative base-10 log of the concentration measured in mol/L.

Value of measured pIC50 for the entry "COc1cc2c(Nc3c(Cl)ccc4occc34)ncnc2cc1OCCCN1CCOCC1" : 8.00

Value of measured pIC50 for the entry "COc1cc2ncnc(Nc3c(Cl)ccc4c3OCO4)c2cc1OCCCN1CCOCC1" : 7.30

Value of measured pIC50 for the entry "COc1cccc(Nc2ncnc3cc(OCCCN4CCOCC4)c(OC)cc23)c1" : 7.43

Value of measured pIC50 for the entry "COc1cc2c(Nc3cccc4[nH]ccc34)ncnc2cc1OCCCN1CCOCC1" : 6.75

Value of measured pIC50 for the entry "COc1cc2c(Nc3cccc4c3OCCO4)ncnc2cc1OCCCN1CCOCC1" : 6.43

Value of measured pIC50 for the entry "COc1cc2c(Nc3cccc4c3OCC4)ncnc2cc1OCCCN1CCOCC1" : 6.36

Value of measured pIC50 for the entry "COc1ccccc1Nc1ncnc2cc(OCCCN3CCOCC3)c(OC)cc12" : 6.25

Value of measured pIC50 for the entry "COc1cc2c(Nc3cccc4c3OCO4)ncnc2cc1OCCCN1CCOCC1" : 7.85

Value of measured pIC50 for the entry "COc1cc2c(Nc3cccc4c(Cl)c[nH]c34)ncnc2cc1OCCCN1CCOCC1" : 7.70

Value of measured pIC50 for the entry "COc1cc2c(Nc3cccc4c3OC(F)(F)O4)ncnc2cc1OCCCN1CCOCC1" : 6.57
